experiment: Tmax in CD1 (ICR) mouse 10 mg/kg, po; type: ADME, organism-based; parameters: dose 10 mg/kg, route oral; conditions: in vivo
Readout Label: Tmax (min)

> print(dat)
                              sample.smiles  quantitative.result
1  CCc1nn2c(-c3c(OC)cc(COC)cc3OC)cccc2c1N(CC1CCOCC1)CC1CC1.Cc1ccc(S(=O)(=O)O)cc1                   15

###

experiment: AUC in CD1 (ICR) mouse at 10 mg/kg, po; type: ADME, organism-based; parameters: dose 10 mg/kg, route oral; details: plasma
Readout Label: AUC (ng·h/mL)

> print(dat)
                              sample.smiles  unit.of.measure  quantitative.result
1  CCc1nn2c(-c3c(OC)cc(COC)cc3OC)cccc2c1N(CC1CCOCC1)CC1CC1.Cc1ccc(S(=O)(=O)O)cc1          ng·h/mL                  870
